Entries and their Dmax
Molecular target: p300 (Homo sapiens, UniProt Q09472)
Construct: host or cells: A549 P300 HiBit cells
Sequence (Q09472 whole entry): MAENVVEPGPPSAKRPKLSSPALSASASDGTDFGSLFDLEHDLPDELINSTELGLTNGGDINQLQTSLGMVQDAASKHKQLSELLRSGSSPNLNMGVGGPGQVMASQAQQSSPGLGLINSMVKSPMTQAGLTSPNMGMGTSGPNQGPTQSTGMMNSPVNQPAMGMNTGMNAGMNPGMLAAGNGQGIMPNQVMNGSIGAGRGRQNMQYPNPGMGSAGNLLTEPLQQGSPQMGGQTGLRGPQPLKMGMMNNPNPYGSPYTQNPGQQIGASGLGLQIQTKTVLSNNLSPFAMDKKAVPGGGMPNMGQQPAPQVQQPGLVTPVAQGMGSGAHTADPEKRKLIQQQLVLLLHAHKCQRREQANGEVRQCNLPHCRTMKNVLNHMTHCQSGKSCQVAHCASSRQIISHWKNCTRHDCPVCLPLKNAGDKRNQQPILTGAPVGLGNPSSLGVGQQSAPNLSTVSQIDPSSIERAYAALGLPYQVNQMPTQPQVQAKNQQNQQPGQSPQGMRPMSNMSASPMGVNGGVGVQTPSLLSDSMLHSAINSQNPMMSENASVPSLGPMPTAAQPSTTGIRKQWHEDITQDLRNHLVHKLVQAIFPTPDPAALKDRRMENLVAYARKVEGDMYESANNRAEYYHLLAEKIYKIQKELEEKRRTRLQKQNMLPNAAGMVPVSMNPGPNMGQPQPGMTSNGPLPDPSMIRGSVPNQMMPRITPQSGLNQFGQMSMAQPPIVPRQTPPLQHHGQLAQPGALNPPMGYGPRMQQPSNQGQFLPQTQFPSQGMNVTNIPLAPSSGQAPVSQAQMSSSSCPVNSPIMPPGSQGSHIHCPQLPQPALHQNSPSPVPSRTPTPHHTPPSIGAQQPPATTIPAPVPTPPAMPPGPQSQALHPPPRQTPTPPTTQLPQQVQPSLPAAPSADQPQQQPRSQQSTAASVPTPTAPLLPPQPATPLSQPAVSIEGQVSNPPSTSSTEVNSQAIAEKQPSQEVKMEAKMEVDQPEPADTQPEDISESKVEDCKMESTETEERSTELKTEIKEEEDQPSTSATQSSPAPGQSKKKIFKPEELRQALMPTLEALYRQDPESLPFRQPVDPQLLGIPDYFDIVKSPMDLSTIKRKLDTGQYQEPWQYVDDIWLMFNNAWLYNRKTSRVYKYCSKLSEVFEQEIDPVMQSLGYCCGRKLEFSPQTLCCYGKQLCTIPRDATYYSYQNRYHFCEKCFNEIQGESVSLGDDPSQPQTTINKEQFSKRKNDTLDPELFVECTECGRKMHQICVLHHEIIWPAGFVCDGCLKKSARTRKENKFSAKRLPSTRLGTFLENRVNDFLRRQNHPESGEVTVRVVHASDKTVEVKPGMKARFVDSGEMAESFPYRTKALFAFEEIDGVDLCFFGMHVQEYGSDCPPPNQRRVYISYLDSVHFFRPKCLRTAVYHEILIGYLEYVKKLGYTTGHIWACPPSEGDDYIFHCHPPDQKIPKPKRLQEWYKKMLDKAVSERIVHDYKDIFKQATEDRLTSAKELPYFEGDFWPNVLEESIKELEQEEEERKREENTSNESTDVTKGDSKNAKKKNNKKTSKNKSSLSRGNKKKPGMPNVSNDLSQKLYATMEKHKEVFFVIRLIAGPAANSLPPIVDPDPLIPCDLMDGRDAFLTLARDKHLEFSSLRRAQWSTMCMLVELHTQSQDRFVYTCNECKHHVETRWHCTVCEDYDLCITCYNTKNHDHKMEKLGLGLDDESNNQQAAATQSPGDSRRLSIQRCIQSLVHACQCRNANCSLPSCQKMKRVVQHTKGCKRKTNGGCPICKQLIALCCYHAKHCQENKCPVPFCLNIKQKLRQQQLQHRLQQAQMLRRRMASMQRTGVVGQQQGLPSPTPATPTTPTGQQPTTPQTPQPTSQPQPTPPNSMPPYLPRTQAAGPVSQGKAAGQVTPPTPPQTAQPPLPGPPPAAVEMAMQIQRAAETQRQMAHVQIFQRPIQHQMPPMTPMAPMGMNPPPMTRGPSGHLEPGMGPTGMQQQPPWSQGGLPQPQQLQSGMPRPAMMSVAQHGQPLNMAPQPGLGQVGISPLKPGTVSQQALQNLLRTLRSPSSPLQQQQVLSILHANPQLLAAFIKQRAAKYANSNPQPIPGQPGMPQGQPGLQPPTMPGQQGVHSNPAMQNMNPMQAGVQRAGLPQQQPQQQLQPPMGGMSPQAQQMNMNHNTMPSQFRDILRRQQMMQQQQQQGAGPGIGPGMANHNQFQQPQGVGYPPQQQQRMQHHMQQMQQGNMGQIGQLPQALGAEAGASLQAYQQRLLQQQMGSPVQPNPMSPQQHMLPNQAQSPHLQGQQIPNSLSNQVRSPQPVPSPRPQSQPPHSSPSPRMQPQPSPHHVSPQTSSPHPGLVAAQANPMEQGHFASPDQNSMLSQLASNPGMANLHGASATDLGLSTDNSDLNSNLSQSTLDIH
Assay: P300 degradation, HiBit technology in A549 P300 HiBit cells (2 h)
Format: cell-based
Conditions: A549, A549 P300 HiBit cells, 2 hrs post treatment
Description: p300 and CBP degradation potency and Dmax were determined using in cell western (ICW) assay technology in H1299 cells or HiBit technology in A549 HiBit cells. A549 P300 HiBit and A549 CBP HiBit cells were plated in separate 384-well, TC treated, white-opaque, flat-bottomed microplate. […] After incubation, luminescent signal of each plate was measured using the Envision instrument (Perkin Elmer).

[
  {
    "Compound": "Cn1c(=O)n(C)c2c(C3CCS(=O)(=O)CC3)nc(-c3cccc4cc(-c5ccc(C(=O)NCC#Cc6ccc7occ(C8CCC(=O)NC8=O)c7c6)nc5)ncc34)cc21 (centres unmarked) [Example A123]",
    "Quantity Name": "Dmax",
    "Result": "60 to 79%"
  },
  {
    "Compound": "Cc1cc2c(N3CCCc4nc(-c5ccc(C(=O)NCC#Cc6cc7cccc(C8CCC(=O)NC8=O)c7o6)nc5)ncc43)cc(C3CCOCC3)cc2n(C)c1=O (centres unmarked) [Example B148]",
    "Quantity Name": "Dmax",
    "Result": "60 to 79%"
  },
  {
    "Compound": "CCc1cc(S(=O)(=O)c2ccc(-c3cnc(C(=O)NCC#Cc4cccc(NC5CCC(=O)NC5=O)c4)c(C)c3)nc2)c2cc(C)c(=O)n(C)c2c1 (centres unmarked) [Example B10]",
    "Quantity Name": "Dmax",
    "Result": "< 20%"
  },
  {
    "Compound": "Cc1cc2c(N3CCCc4nc(-c5ccc(C(=O)NCC#Cc6ccc7onc(C8CCC(=O)NC8=O)c7c6)nc5)ncc43)cc(C3CCOCC3)cc2n(C)c1=O (centres unmarked) [Example B108]",
    "Quantity Name": "Dmax",
    "Result": "> 80%"
  },
  {
    "Compound": "Cn1c(=O)n(C)c2c(C3CCS(=O)(=O)CC3)nc(N3CCCc4cc(-c5ccc(C(=O)NCC#Cc6ccc7occ(C8CCC(=O)NC8=O)c7c6)nc5)c(C(F)F)cc43)cc21 (centres unmarked) [Example A140]",
    "Quantity Name": "Dmax",
    "Result": "40 to 59%"
  }
]

Q. Returns the measured Dmax for the input compound. Input: Cn1c(=O)n(C)c2c(N3CC4CCC(C3)O4)nc(-c3cccc4cc(-c5ccc(C(=O)NCC#Cc6ccc7occ(C8CCC(=O)NC8=O)c7c6)nc5)ncc34)cc21 (centres unmarked) [Example A86]
A. > 80%

Q. Returns the measured Dmax for the input compound. Input: Cc1cc(=O)n(C)c2cc(C3CCOCC3)cc(N3CCCc4nc(-c5ccc(C(=O)NCC#Cc6ccc7occ(C8CCC(=O)NC8=O)c7c6)nc5)ncc43)c12 (centres unmarked) [Example B80]
A. < 20%

Q. Returns the measured Dmax for the input compound. Input: Cc1cc(-c2ncc3c(n2)OCCN3c2ccc3c(c2)n(C)c(=O)n3C)cnc1C(=O)NCC#Cc1cc2c([C@@H]3CCC(=O)NC3=O)cccc2o1 [Example A175]
A. > 80%

Q. Returns the measured Dmax for the input compound. Input: Cc1cc(-c2cc3cccc(-c4ccc5c(c4)n(C)c(=O)n5C)c3cn2)cnc1C(=O)NCC#Cc1cc2c([C@@H]3CCC(=O)NC3=O)cccc2o1 [Example A182]
A. > 80%

Q. Returns the measured Dmax for the input compound. Input: COc1cc2cnn(C3CCC(=O)NC3=O)c2cc1C#CCNC(=O)c1ccc(-c2cc3cccc(-c4cc(C(C)C)c5c(c4)n(C)c(=O)n5C)c3cn2)cn1 (centres unmarked) [Example A27]
A. 60 to 79%

Q. Returns the measured Dmax for the input compound. Input: Cc1cc2c(N3CCCc4nc(-c5ccc(C(=O)NCC#Cc6cc7c(C8CCC(=O)NC8=O)cccc7o6)nc5)ncc43)cc(C3CCC3)cc2n(C)c1=O (centres unmarked) [Example B161]
A. > 80%

Q. Returns the measured Dmax for the input compound. Input: [2H]C([2H])(C#Cc1ccc2occ(C3CCC(=O)NC3=O)c2c1)NC(=O)c1ccc(-c2ncc3c(n2)CCCN3c2cc(C3CCOCC3)cc3c2cc(C)c(=O)n3C)cn1 (centres unmarked) [Example B117]
A. > 80%

Q. Returns the measured Dmax for the input compound. Input: Cc1cc(-c2ncc(N(C)c3cc(C4CCOCC4)c4c(c3)n(C)c(=O)n4C)s2)cnc1C(=O)NCC#Cc1ccc2occ(C3CCC(=O)NC3=O)c2c1 (centres unmarked) [Example A149]
A. < 20%

Q. Returns the measured Dmax for the input compound. Input: Cc1cc(-c2ncc3c(n2)OCCN3c2ccc3c(c2)n(C)c(=O)n3C)cnc1C(=O)NCC#Cc1cc2ccnc(C3CCC(=O)NC3=O)c2o1 (centres unmarked) [Example A251]
A. 60 to 79%

Q. Returns the measured Dmax for the input compound. Input: CCc1cc(N(C)c2ccc(-c3cnc(C(=O)NCC#Cc4cccc(NC5CCC(=O)NC5=O)c4)c(C)c3)nc2)c2cc(C)c(=O)n(C)c2c1 (centres unmarked) [Example B16]
A. > 80%

Q. Returns the measured Dmax for the input compound. Input: CC(C)c1cc(-c2cccc3cc(-c4ccc(C(=O)NCC#Cc5ccc6ncc(C7CCC(=O)NC7=O)n6c5)nc4)ncc23)cc2c1n(C)c(=O)n2C (centres unmarked) [Example A25]
A. > 80%

Q. Returns the measured Dmax for the input compound. Input: Cc1cc2c(N3CCCc4nc(-c5ccc6c(c5)C(=O)N(CC#Cc5ccc7occ(C8CCC(=O)NC8=O)c7c5)C6)ncc43)cc(C3CCOCC3)cc2n(C)c1=O (centres unmarked) [Example B44]
A. 20 to 39%

Value source: patent US20250114345A1
